System: Fibroblast
protocol_details: Multiplex assay against human fibroblast
Assay type: toxicity, cell-based
experimental_setup: 12 h, 10 µM, compound concentration 10 uM, replicate 1
measured_endpoint: Population Apoptotic (%)
Express it in %; write the number only.

Here are 5 compounds together with their reported answers.
Cl.NC[C@@H]1O[C@H](C23CC4CC(CC(C4)C2)C3)Cc2c1ccc(O)c2O
44
CC(C)c1cc(Nc2nc(N3CCC[C@H](N)C3)ncc2C(N)=O)cc(C(C)C)n1
59
CC(Cc1ccc(O)c(O)c1)C(C)Cc1ccc(O)c(O)c1 (centres undefined) [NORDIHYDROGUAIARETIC ACID]
87
Cc1c(P(=S)(c2ccccc2)c2ccccc2)n2ccccc2[n+]1C/C=C/c1ccccc1.[Br-]
73
C[C@@H](Oc1cc(-n2cnc3ccc(CN4CCN(C)CC4)cc32)sc1C(N)=O)c1ccccc1C(F)(F)F [GSK-461364]
78

Please look up its Population Apoptotic (%): CC[C@@]1(O)C(=O)OCc2c1cc1n(c2=O)Cc2cc3ccccc3nc2-1 [CAMPTOTHECIN]
87

Please look up its Population Apoptotic (%): CN1C(=O)[C@@H](NC(=O)c2cc3ccccc3[nH]2)N=C(c2ccccc2)c2ccccc21 [DEVAZEPIDE]
67

Please look up its Population Apoptotic (%): Cc1c(Nc2ccc(S(=O)(=O)N3CCN(C)CC3)cc2F)nc2ccc(Nc3cnn(C4CC4)c3)cn2c1=O
79

Please look up its Population Apoptotic (%): c1ccc(-c2oc3ncnc(NC[C@@H]4CCCO4)c3c2-c2ccccc2)cc1
53

Please look up its Population Apoptotic (%): CCCCCNC(=N)N/N=C/c1c[nH]c2ccc(OC)cc12.O=C(O)/C=C\C(=O)O [TEGASEROD MALEATE]
50

Please look up its Population Apoptotic (%): Oc1cccc(-c2nc(N3CCOCC3)c3oc4ncccc4c3n2)c1 [PI-103]
70

Please look up its Population Apoptotic (%): C=CC(=O)Nc1cc(-n2c(=O)ccc3cnc4ccc(-c5ccc(NS(C)(=O)=O)cc5)cc4c32)ccc1C
51

Please look up its Population Apoptotic (%): N#Cc1cccc(C(=O)Nc2cc(-c3ccccc3)nn2-c2ccccc2)c1
50
